assaySummary: NCI Yeast Anticancer Drug Screen. Data for the bub3 strain (AID 167)
assayConditions: S. cerevisiae bub3 mutant strain, at 50.0 µM (retest, dose inferred, filed as 5.0), active compounds read high
Compounds without any hit were thinned out: in the full panel of roughly 79,000, 15% have a hit.
measuredAttribute: growth inhibition (%)

{"compound": "CCCCNc1ncc(OCC)c(NCCCC)n1", "measuredAttribute": "growth inhibition", "recordedMeasurement": 23}
{"compound": "C[C@H]1CC[C@@H]2[C@@H](C)[C@H]3[C@H](C[C@H]4[C@@H]5CC=C6C[C@@H](O)CC[C@]6(C)[C@H]5CC[C@]34C)N2C1", "measuredAttribute": "growth inhibition", "recordedMeasurement": 99}
{"compound": "CC(C)/C=C1\\CCC(CN2CCOCC2)C1=O (centres undefined)", "measuredAttribute": "growth inhibition", "recordedMeasurement": 62}
{"compound": "C(=N\\NC1=NCCN1)/c1cccc2cc3ccncc3nc12", "measuredAttribute": "growth inhibition", "recordedMeasurement": 27}
{"compound": "CCCC(C)OC(=O)Nc1cccc(Cl)c1 (centres undefined)", "measuredAttribute": "growth inhibition", "recordedMeasurement": 1}
{"compound": "CC(=O)c1c(O)c2cccc3c2n(c1=O)CCC3", "measuredAttribute": "growth inhibition", "recordedMeasurement": 99}
{"compound": "CC(=O)Oc1cc(Cl)ccc1Cc1ccc(Cl)cc1OC(C)=O", "measuredAttribute": "growth inhibition", "recordedMeasurement": 83}
{"compound": "Cc1ccc(SCc2ccc(Cl)cc2Cl)nn1", "measuredAttribute": "growth inhibition", "recordedMeasurement": 61}
{"compound": "CCCCN(Cc1ccccc1)CC(O)c1cc2c(c3ccccc13)CCCC2 (centres undefined)", "measuredAttribute": "growth inhibition", "recordedMeasurement": 84}
{"compound": "COc1ccccc1/C=C/c1ccnc2ccccc12", "measuredAttribute": "growth inhibition", "recordedMeasurement": 97}
{"compound": "COC1=CC(=O)c2ncccc2C1=O", "measuredAttribute": "growth inhibition", "recordedMeasurement": 81}
{"compound": "CC(C=O)Cc1ccccc1 (centres undefined)", "measuredAttribute": "growth inhibition", "recordedMeasurement": -4}
{"compound": "CN(C)CC(O)c1cc(-c2ccc(Cl)cc2)nc2c(Cl)cc(Cl)cc12 (centres undefined)", "measuredAttribute": "growth inhibition", "recordedMeasurement": 99}
{"compound": "CCOC(=O)N1C=C(C(=O)OC)C(c2ccccc2)C(C(=O)OC)=C1", "measuredAttribute": "growth inhibition", "recordedMeasurement": 35}
{"compound": "CC1CCCCN(CCN(Cc2ccccc2)c2ccccc2)C1 (centres undefined)", "measuredAttribute": "growth inhibition", "recordedMeasurement": 52}
{"compound": "COC(=O)CCCCCOS(=O)(=O)c1ccc(C)cc1", "measuredAttribute": "growth inhibition", "recordedMeasurement": -5}
{"compound": "O=c1c(Cl)cc2nc3ccccc3sc-2c1Cl", "measuredAttribute": "growth inhibition", "recordedMeasurement": 85}
{"compound": "COc1ccc2nc3cccc([N+](=O)[O-])c3c(NCCN(C)C)c2c1", "measuredAttribute": "growth inhibition", "recordedMeasurement": 96}
{"compound": "CC[n+]1ccc(Nc2ccc(NC(=O)c3ccc(C(=O)Nc4ccc(Nc5cc[n+](CC)c(N)n5)cc4)cc3)cc2)nc1N", "measuredAttribute": "growth inhibition", "recordedMeasurement": 96}
{"compound": "CC(C)(C)C1CCC2c3c([nH]c4ccccc34)C3C(=O)N(c4ccc(C(=O)O)cc4)C(=O)C3C2C1 (centres undefined)", "measuredAttribute": "growth inhibition", "recordedMeasurement": 99}
{"compound": "CC1COC(c2cn[nH]c2C(N)=O)C1O (centres undefined)", "measuredAttribute": "growth inhibition", "recordedMeasurement": 24}
{"compound": "CCN(CC)C(=S)n1c(=S)nc(N(CC)CC)sc1=S", "measuredAttribute": "growth inhibition", "recordedMeasurement": 83}
{"compound": "Oc1c(Br)cc(Br)c2cccnc12", "measuredAttribute": "growth inhibition", "recordedMeasurement": 88}
{"compound": "O=C1c2ccccc2C(=O)c2sc(Nc3cc(Cl)ccc3Cl)nc21", "measuredAttribute": "growth inhibition", "recordedMeasurement": 98}

----------
assaySummary: NCI Yeast Anticancer Drug Screen. Data for the bub3 strain (AID 167)
assayConditions: S. cerevisiae bub3 mutant strain, at 5.0 µM (retest, dose inferred, filed as 0.5), active compounds read high
About 79,000 compounds went through this panel and 15% of them were active in at least one assay; those are over-represented in the sample as a whole. Where a SMILES comes first, the peptide text is derived from it. The star is where a group is joined. Cbz = O=C(OCc1ccccc1)*; Boc = CC(C)(C)OC(=O)*; OSu = O=C1CCC(=O)N1O*; Bn = c1ccc(C*)cc1
measuredAttribute: growth inhibition (%)

{"compound": "CN(CCCN(CCO)CCO)C1CC(C)(C)N(O)C(C)(C)C1", "measuredAttribute": "growth inhibition", "recordedMeasurement": -3}
{"compound": "COC1CC(OC(=O)c2ccccc2)C(OC(=O)c2ccccc2)C(C)O1 (stereo not given)", "measuredAttribute": "growth inhibition", "recordedMeasurement": 44}
{"compound": "[O-]/[N+]1=[N+](\\[O-])c2ccccc2CCc2ccccc21", "measuredAttribute": "growth inhibition", "recordedMeasurement": -1}
{"compound": "CCCCCc1cc(Cl)cc(Cl)c1O", "measuredAttribute": "growth inhibition", "recordedMeasurement": -22}
{"compound": "CCCCCCCCCCCCN(CCO)CCO", "measuredAttribute": "growth inhibition", "recordedMeasurement": 57}
{"compound": "CC(C)(C)OC(=O)NC(Cc1ccc(OCc2ccccc2)cc1)C(=O)NC(CCCCNC(=O)OCc1ccccc1)C(=O)ON1C(=O)CCC1=O (stereo not given) (Boc-Tyr(Bn)-Lys(Cbz)-OSu; configuration not given here)", "measuredAttribute": "growth inhibition", "recordedMeasurement": 37}
{"compound": "CC(Nc1ccc(S(=O)(=O)Nc2ncccn2)cc1)c1ccc2cccnc2c1O (stereo not given)", "measuredAttribute": "growth inhibition", "recordedMeasurement": 11}
{"compound": "CCCC1CCCC1(CC(=O)c1ccccc1)C(=O)O (stereo not given)", "measuredAttribute": "growth inhibition", "recordedMeasurement": 63}
{"compound": "O=S(=O)(OI(OI(OS(=O)(=O)C(F)(F)F)c1ccccc1)c1ccccc1)C(F)(F)F", "measuredAttribute": "growth inhibition", "recordedMeasurement": 65}
{"compound": "COC(=O)C1=C(C(=O)OC)C2C(C)=CC(C)=CN2C(C(=O)OC)=C1C(=O)OC (stereo not given)", "measuredAttribute": "growth inhibition", "recordedMeasurement": 2}
{"compound": "CCN(CC)CCOc1cccc2c1C(=O)c1c(O)cccc1C2=O", "measuredAttribute": "growth inhibition", "recordedMeasurement": 8}
{"compound": "Nc1c(Cl)nc(C(F)(F)F)nc1NCc1ccccc1", "measuredAttribute": "growth inhibition", "recordedMeasurement": 99}
{"compound": "CCCCCCOC(=O)Nc1ccc(S(=O)(=O)N2CCCCC2)cc1", "measuredAttribute": "growth inhibition", "recordedMeasurement": -10}
{"compound": "COC1/C=C\\OC2(C)Oc3c(C)c(O)c4c(c3C2=O)C(=O)C=C(NC(=O)C(C)=C/C=C\\C(C)C(O)C(C)C2OC(C)(C)OC(C1C)C2C)C4=O (stereo not given)", "measuredAttribute": "growth inhibition", "recordedMeasurement": -3}
{"compound": "CCOc1c(N=Nc2ccccc2Cl)c(-c2ccccc2)nn1C(=S)S", "measuredAttribute": "growth inhibition", "recordedMeasurement": 3}
{"compound": "CC1(C)OC2C(CO)OC(n3ncc(=S)[nH]c3=O)C2O1 (stereo not given)", "measuredAttribute": "growth inhibition", "recordedMeasurement": 6}
{"compound": "Nc1cc2c(cc1/C=C(\\C(=O)O)c1ccccc1)OCO2", "measuredAttribute": "growth inhibition", "recordedMeasurement": -6}
{"compound": "O=C1CN(Cc2ccc(Cl)cc2)CC(=O)N2Cc3ccccc3CN12", "measuredAttribute": "growth inhibition", "recordedMeasurement": 6}
{"compound": "CCOC(=O)CC1=NC(=Nc2cc(Cl)ccc2Cl)SC1", "measuredAttribute": "growth inhibition", "recordedMeasurement": 29}
{"compound": "CC1=C(C2CO2)C(=O)C(C)=C(C2CO2)C1=O (stereo not given)", "measuredAttribute": "growth inhibition", "recordedMeasurement": 43}
{"compound": "CC(=O)OC(c1ccc(Cl)cc1)c1ccc(Cl)cc1", "measuredAttribute": "growth inhibition", "recordedMeasurement": 2}
{"compound": "S=c1ncc2c([nH]1)C1c3ccccc3C2c2ccccc21", "measuredAttribute": "growth inhibition", "recordedMeasurement": 16}
{"compound": "CCOC(=O)CC1=NC(=Nc2ccc(Cl)c(Cl)c2)SC1", "measuredAttribute": "growth inhibition", "recordedMeasurement": 4}
{"compound": "Cc1cc(NS(=O)(=O)c2ccc(NCc3c4ccccc4nc4cc(Cl)ccc34)cc2)no1", "measuredAttribute": "growth inhibition", "recordedMeasurement": 25}
{"compound": "CC1(c2ccccc2)OC1C(=O)N(c1ccccc1)c1ccccc1 (stereo not given)", "measuredAttribute": "growth inhibition", "recordedMeasurement": 22}
{"compound": "Cc1cccc(/C=N\\OCCc2ccccc2)n1", "measuredAttribute": "growth inhibition", "recordedMeasurement": 2}
{"compound": "O.O.O=Cc1cc(Br)cc(Br)c1O.O=Cc1cc(Br)cc(Br)c1O.[Co]", "measuredAttribute": "growth inhibition", "recordedMeasurement": 53}
{"compound": "Cc1ccc(/C=N/NC(N)=S)cc1C", "measuredAttribute": "growth inhibition", "recordedMeasurement": -4}
{"compound": "CC12C=CC(=O)C=C1CCC1C3CCC(O)(C(=O)CO)C3(C)CC(O)C12F (stereo not given)", "measuredAttribute": "growth inhibition", "recordedMeasurement": 6}
{"compound": "COC(=O)N(C[C@@H]1C=CCCC1)c1ccccc1I", "measuredAttribute": "growth inhibition", "recordedMeasurement": 47}
{"compound": "CC1=C(C(=O)OCCO[N+](=O)[O-])C(c2ccccc2[N+](=O)[O-])C(C(=O)OC(C)C)=C(C)N1 (stereo not given)", "measuredAttribute": "growth inhibition", "recordedMeasurement": -3}
{"compound": "CC(C)SC(=S)Nc1ccc(Cl)cc1", "measuredAttribute": "growth inhibition", "recordedMeasurement": 0}
{"compound": "Cc1nc2c(Cl)cccc2c2ccccc12", "measuredAttribute": "growth inhibition", "recordedMeasurement": -1}
{"compound": "CC1(C)CCC(C)(C)c2cc(C(=O)Nc3ccc(C(=O)O)cc3)ccc21", "measuredAttribute": "growth inhibition", "recordedMeasurement": 13}
{"compound": "Cc1ccc(S(=O)(=O)N/N=C2\\CC(C)OC3=C2CCCCCC3)cc1 (stereo not given)", "measuredAttribute": "growth inhibition", "recordedMeasurement": 1}
{"compound": "COc1ccc(CCBr)cc1", "measuredAttribute": "growth inhibition", "recordedMeasurement": -17}
{"compound": "O=C(c1ccccc1)c1[nH]c2ccccc2c(=O)c1-c1ccc([N+](=O)[O-])cc1", "measuredAttribute": "growth inhibition", "recordedMeasurement": -8}
{"compound": "C=CCNC(=S)N/N=C/c1nccc(-c2ccccc2)c1C", "measuredAttribute": "growth inhibition", "recordedMeasurement": 54}
{"compound": "C1=C(c2ccccc2)C(=Nc2ccccc2)SC1=Nc1ccccc1", "measuredAttribute": "growth inhibition", "recordedMeasurement": 53}
{"compound": "O=C1C(Cl)=C(Cl)C(=O)C2=C1CC(Cl)C(Cl)C2 (stereo not given)", "measuredAttribute": "growth inhibition", "recordedMeasurement": 96}
{"compound": "Nc1ccc2nc3ccccc3nc2c1", "measuredAttribute": "growth inhibition", "recordedMeasurement": -4}
{"compound": "N=C(N)c1ccc(/C=C/c2ccc(C(=N)N)cc2)cc1", "measuredAttribute": "growth inhibition", "recordedMeasurement": 82}
{"compound": "COc1cccc2c1OC(c1cccc3ccccc13)C([N+](=O)[O-])=C2 (stereo not given)", "measuredAttribute": "growth inhibition", "recordedMeasurement": 47}
{"compound": "CCC1C(c2cccc(OC)c2O)c2cc3c(cc2OC1N1CCCC1)OCO3 (stereo not given)", "measuredAttribute": "growth inhibition", "recordedMeasurement": 17}
{"compound": "O=C1CC(c2ccccc2Cl)C(c2ccccc2Cl)C1 (stereo not given)", "measuredAttribute": "growth inhibition", "recordedMeasurement": 0}
